As shown below, each of these compounds has a reported pIC50 value.
# Tested on: A549
# ASSAY_NOTES: Anticancer activity against human A549 cells assessed as inhibition of cell growth after 24 hrs by MTT assay
# Type: functional, cell-based
# CONDITIONS: A549, 24 h
Conceptually, pIC50 converts a concentration in mol/L into minus its log10.

Entry "N=C(N)[Se]Cc1ccc([N+](=O)[O-])o1" — recorded pIC50 = 4.64

Entry "N=C(N)SCc1ccc2c(c1)C(=O)c1ccccc1C2=O" — recorded pIC50 = 5.01

Entry "N=C(N)[Se]Cc1c2ccccc2nc2ccccc12" — recorded pIC50 = 4.46

* * *

# ASSAY_NOTES: Anticancer activity against human 1205 Lu cells assessed as inhibition of cell growth after 48 hrs by MTT assay
# Assay type: functional, cell-based
pIC50: −log10 of the molar value.
MEASUREMENT_TYPE: pIC50

N=C(N)SCc1c2ccccc2nc2ccccc12 ... < 4.30
N=C(N)SCN1C(=O)c2ccccc2C1=O ... < 4.30
N=C(N)SCc1cc2c(cc1Br)OCO2 ... < 4.30

Entry "N=C(N)[Se]Cc1ccc2ccccc2n1" — recorded pIC50 = 5.00

Entry "Cc1noc(C)c1C[Se]C(=N)N" — recorded pIC50 = < 4.30

Entry "COc1cc2oc(=O)cc(C[Se]C(=N)N)c2cc1OC" — recorded pIC50 = 5.36

Entry "N=C(N)[Se]Cc1cc2c(cc1Br)OCO2" — recorded pIC50 = < 4.30

* * *

# ASSAY_NOTES: Anticancer activity against human DU145 cells assessed as inhibition of cell growth after 24 hrs by MTT assay
# Assay type: functional, cell-based
# CONDITIONS: DU-145, 24 h
MEASUREMENT_TYPE: IC50 (µM)
Your answer is read as µM, so omit the unit and give the number.

N=C(N)[Se]Cc1c2ccccc2nc2ccccc12 ... 31.8

# ---- query compound ----
Entry "N=C(N)[Se]CN1C(=O)c2ccccc2C1=O" — recorded IC50 = 18.8

* * *

As shown below, each of these compounds has a reported IC50 value.
# ASSAY_NOTES: Anticancer activity against human BxPC3 cells assessed as inhibition of cell growth after 24 hrs by MTT assay
# Type: functional, cell-based
# CONDITIONS: BXPC-3, 24 h

N=C(N)[Se]CN1C(=O)c2ccccc2C1=O ... 19.8 µM
N=C(N)[Se]Cc1ccc2c(c1)C(=O)c1ccccc1C2=O ... > 50 µM
COc1cc2oc(=O)cc(C[Se]C(=N)N)c2cc1OC ... > 50 µM

Entry "Cc1noc(C)c1CSC(=N)N" — recorded IC50 = > 50 µM

Entry "N=C(N)SCc1c2ccccc2nc2ccccc12" — recorded IC50 = > 50 µM

Entry "N=C(N)[Se]Cc1ccc(-n2cccc2)cc1" — recorded IC50 = > 50 µM

* * *

# ASSAY_NOTES: Anticancer activity against human PANC1 cells assessed as inhibition of cell growth after 72 hrs by MTT assay
# Format: functional, cell-based
# CONDITIONS: PANC-1, 72 h
pIC50: −log10 of the molar value.
As shown below, each of these compounds has a reported pIC50 value.

In the examples that follow, each entry is paired with its recorded pIC50.
N=C(N)SCc1ccc([N+](=O)[O-])o1 ... < 4.30
N=C(N)SCc1nc2ccccc2nc1CSC(=N)N ... < 4.30
N=C(N)[Se]Cc1ccc(-n2cccc2)cc1 ... < 4.30

# ---- query compound ----
Entry "N=C(N)SCc1c2ccccc2nc2ccccc12" — recorded pIC50 = < 4.30

* * *

As shown below, each of these compounds has a reported IC50 value.
# ASSAY_NOTES: Anticancer activity against human DU145 cells assessed as inhibition of cell growth after 72 hrs by MTT assay
# Assay type: functional, cell-based
# CONDITIONS: DU-145, 72 h

In the examples that follow, each entry is paired with its recorded IC50.
N=C(N)[Se]Cc1ccc(-n2cccc2)cc1 ... > 50 µM
N=C(N)SCc1cc2c(cc1Br)OCO2 ... > 50 µM
N=C(N)SCc1nc2ccccc2nc1CSC(=N)N ... > 50 µM
COc1cc2oc(=O)cc(CSC(=N)N)c2cc1OC ... > 50 µM

# ---- query compound ----
Entry "N=C(N)[Se]Cc1cc2c(cc1Br)OCO2" — recorded IC50 = > 50 µM
